target: T1, Human CD3εδ Fc heterodimer (Hu CD3ε Fc + CD3δ Fc-HIS) (human, UniProt P07766 22-126; P04234 22-100); test: BLI (Octet), CD3εδ Fc on AHC sensor, 100 nM Fab
T1 construct: range 22-126;range 22-100; Made in HEK 293 cells with a heterologous signal peptide; also called Hu CD3εδ-Fc; CD3εδ Fc-HIS heterodimer; not shown: Fc; Fc followed by HIS tag
T1 sequence (P07766 22-126, stated change not applied, form in doubt, chain 1 of 2): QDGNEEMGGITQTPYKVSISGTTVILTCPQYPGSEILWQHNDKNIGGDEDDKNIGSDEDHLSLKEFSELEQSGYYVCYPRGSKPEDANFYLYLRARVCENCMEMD
T1 sequence (P04234 22-100, stated change not applied, form in doubt, chain 2 of 2): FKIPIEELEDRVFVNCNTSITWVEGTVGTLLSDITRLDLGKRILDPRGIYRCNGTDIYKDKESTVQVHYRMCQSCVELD
Known Kd of a selection of binders
Write the answer as a number in nM, unit excluded.

Sample Antibody No. V003 (ADI-67446) Fab (Fab, V domains shown, Fab by papain digestion of the IgG1) VH: QVQLVQSGAEVKKPGASVKVSCKASGFDIKDYYMHWVRQAPGQRLEWMGWIELENADTIYDAKFQGRVTITRDTSASTAYMELSSLRSEDTAVYYCARDAYGRYFYDVWGQGTLVTVSS VL: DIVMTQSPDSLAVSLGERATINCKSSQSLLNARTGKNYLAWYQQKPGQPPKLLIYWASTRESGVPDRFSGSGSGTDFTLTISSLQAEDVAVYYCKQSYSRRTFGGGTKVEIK — what was its Kd?
4.57

***
Sample Antibody No. V010 (ADI-70327) Fab (Fab, V domains shown, Fab by papain digestion of the IgG1) VH: QVQLVQSGAEVKKPGASVKVSCKASGFDIKDYYMHWVRQAPGQRLEWIGWIELENDDTVYDAKFQGRVTITRDTSASTAYMELSSLRSEDTAVYYCARDAYGRYFYDVWGQGTLVTVSS VL: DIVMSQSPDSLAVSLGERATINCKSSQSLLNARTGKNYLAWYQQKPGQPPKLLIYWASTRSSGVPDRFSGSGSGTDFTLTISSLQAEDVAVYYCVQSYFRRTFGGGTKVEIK — what was its Kd?
1.92

Sample Antibody No. V011 (ADI-70328) Fab (Fab, V domains shown, Fab by papain digestion of the IgG1) VH: QVQLVQSGAEVKKPGASVKVSCKASGFNIDDYYMHWVRQAPGQRLEWIGWIDLENDNTVYDAKFQGRVTITRDTSASTAYMELSSLRSEDTAVYYCARDAYGRYFYDVWGQGTLVTVSS VL: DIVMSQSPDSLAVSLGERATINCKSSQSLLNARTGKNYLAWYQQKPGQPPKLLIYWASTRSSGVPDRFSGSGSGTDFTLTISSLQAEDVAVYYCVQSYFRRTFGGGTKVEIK — what was its Kd?
0.82

Sample Antibody No. A002 (ADI-50024) Fab (Fab, V domains shown, Fab by papain digestion of the IgG1) VH: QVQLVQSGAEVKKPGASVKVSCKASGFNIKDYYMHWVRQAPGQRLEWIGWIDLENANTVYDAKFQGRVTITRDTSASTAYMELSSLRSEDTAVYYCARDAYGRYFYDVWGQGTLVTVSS VL: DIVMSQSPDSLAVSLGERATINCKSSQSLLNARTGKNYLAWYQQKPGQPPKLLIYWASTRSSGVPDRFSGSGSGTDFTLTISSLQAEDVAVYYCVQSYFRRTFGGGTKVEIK — what was its Kd?
0.5

Origin of the recorded values: patent US20240317858A1
